system: primary human T-cells;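 note: cd3-stimulated proliferation read by CellTiter-Glo after 5 days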
Entries whose EC50 is below 0.5 µM take 1.0; entries at or above 0.5 µM take 0.0.

• COC(=O)N1CCC(n2nnc(-c3cc4c(cc3F)S(=O)(=O)C[C@H](N)C(=O)N4Cc3ccc(Cl)cc3)n2)C1 (stereo partly drawn) = 0.0
• CN1CC(n2nnc(-c3cc4c(cc3F)S(=O)(=O)C[C@H](N)C(=O)N4Cc3ccccc3)n2)CC(F)(F)C1 (stereo partly drawn) = 0.0
• CCc1coc(CN2C(=O)[C@@H](N)CS(=O)(=O)c3cc(F)c(-c4nnc(C(C)(C)C)o4)cc32)n1 = 0.0
• Cc1nnc(-c2nc(-c3cc4c(cc3F)S(=O)(=O)C[C@H](N)C(=O)N4Cc3ccc(Cl)cc3)no2)o1 = 0.0
• CC(C)c1nnc(-c2cc3c(cc2F)S(=O)(=O)C[C@H](N)C(=O)N3Cc2ccc(Cl)cc2)o1 = 1.0

Input COC(=O)N1CC2CC(c3nc(-c4cc5c(cc4F)S(=N)(=O)C[C@H](N)C(=O)N5Cc4ccc(OC(F)(F)C(F)F)cc4)no3)(C2)C1 (stereo partly drawn) ; condition: EC50 strictly below 0.5 µM. Does it hold?
0.0

EC50 strictly < 0.5 µM for this molecule? CC(C)(C)c1nnc(-c2cc3c(cc2F)S(=O)(=O)C[C@H](N)C(=O)N3Cc2ccc(C3(O)COC3)cc2)o1
0.0

For N[C@H]1CS(=O)(=O)c2cc(F)c(-c3nnc(NC4CCCCC4)o3)cc2N(Cc2ccc(Cl)cc2)C1=O , is the recorded EC50 below the cut-off of 0.5 µM?
1.0

Below 0.5 µM on EC50? Entry COC(F)(c1nnc(-c2ccc3c(c2)N(Cc2ccc(OC(F)(F)F)cc2)C(=O)[C@@H](N)CS3(=O)=O)o1)C(F)(F)F (stereo partly drawn)
1.0

====

test system: primary human T-cells;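 note: cd3-stimulated proliferation read by CellTiter-Glo after 5 days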
Readout: EC50

As a guide, the following entries are already answered.
- COC(=O)N1CCC(c2nc(-c3cc4c(cc3F)S(=O)(=O)C[C@H](N)C(=O)N4Cc3ccc(OC4CCCC4)cc3)no2)C1 (stereo partly shown): 1710 nM
- NC1CN(c2nnc(-c3cc4c(cc3F)S(=O)(=O)C[C@H](N)C(=O)N4Cc3ccc(Cl)cc3)o2)CCC1(F)F (stereo partly shown): 474 nM
- CC(C)(C#N)c1nnc(-c2cc3c(cc2F)S(=O)(=O)C[C@H](N)C(=O)N3Cc2ccc(Cl)cc2)o1: 277 nM
- CC1(c2nnc(-c3cc4c(cc3F)S(=O)(=O)C[C@H](N)C(=O)N4Cc3ccc(Cl)cc3)o2)CNC1: > 10000 nM
- CC(C)(C)c1nnc(-c2cc3c(cc2F)S(=O)(=O)C[C@H](N)C(=O)N3Cc2cnc(C3CC3)nc2)o1: 769 nM
- N[C@H]1CS(=O)(=O)c2ccc(-c3nnc(C4CC5(CC(O)C5)C4)o3)cc2N(Cc2ccc(Cl)cc2)C1=O (stereo partly shown): 2280 nM
- COC(F)(c1nnc(-c2ccc3c(c2)N(Cc2ccc(OC(F)(F)F)cc2)C(=O)[C@@H](N)C[S+]3[O-])o1)C(F)(F)F (single isomer, unassigned; epimer a) [Example 425]: > 10000 nM
- CC(C)(c1nnc(-c2cc3c(cc2F)S(=O)(=O)C[C@H](N)C(=O)N3Cc2ccc(Cl)cc2)o1)C(N)C(F)(F)F (stereo partly shown): 187 nM
- COC(=O)N1CCC(C)(c2nnc(-c3cc4c(cc3F)S(=O)(=O)C[C@H](N)C(=O)N4Cc3ccc(Cl)cc3)o2)CC1: 75.7 nM
- CC(C)(C)c1nnc(-c2cc3c(cc2F)S(=O)(=O)C[C@H](N)C(=O)N3Cc2ccc(S(C)(=O)=O)cc2F)o1: 6390 nM

For reference, reported EC50 for CC(N)(c1nnc(-c2cc3c(cc2F)S(=O)(=O)C[C@H](N)C(=O)N3Cc2ccc(Cl)cc2)o1)C(F)(F)F (stereo partly shown) stands at 232 nM

For CC(Nc1nnc(-c2cc3c(cc2F)S(=O)(=O)C[C@H](N)C(=O)N3Cc2ccc(Cl)cc2)o1)C1CC(F)(F)C1 (stereo partly shown) the compound record lists EC50 as 1280 nM

EC50 recorded for this compound, N[C@H]1CS(=O)(=O)c2cc(F)c(-c3nnc(C(=O)N4[C@@H]5CCC[C@H]4CC5)o3)cc2N(Cc2ccc(Cl)cc2)C1=O , is 604 nM
